# target-entity: T1, human PD-L1 expressed on CHO-K1 cells (Genscript, Cat #M00543) (human, UniProt Q9NZQ7 19-290)
# T1 construct: also called PD-L1 cell line
# T1 sequence (Q9NZQ7 19-290, one chain of several): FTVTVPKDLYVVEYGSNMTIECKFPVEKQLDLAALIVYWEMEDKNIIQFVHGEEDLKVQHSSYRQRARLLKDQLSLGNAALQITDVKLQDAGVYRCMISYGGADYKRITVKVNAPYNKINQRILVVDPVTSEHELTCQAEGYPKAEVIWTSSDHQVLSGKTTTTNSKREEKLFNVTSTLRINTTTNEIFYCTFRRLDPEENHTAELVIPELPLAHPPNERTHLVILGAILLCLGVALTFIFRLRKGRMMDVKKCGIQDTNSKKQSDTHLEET
# assay-details: FACS, CHO-K1/human PD-L1 cells
property-name: EC50 (nM)
Reply numerically in nM, unit not repeated.

Reference set, count: 5
What does the data say about its EC50? Entry: 21D1F4D4 (antibody, V domains shown, Mouse mAb from hybridoma culture) VH: QVQLQQPGAEVVRPGASVKLSCKASGYTFTNYWISWVKQRPGQGLEWIGNIYPSDSYTNYNQNFKDKATLTVDKSSSTAYMQLSSPTSEDSAVYYCTTGIITVIATRDDYWGQGTTLTVSS VL: QIVLTQSPAIMSASPGEKVTLTCSASSSVSSSYLYWYQQKPGSSPKLWIYSTSNLASGVPARFSGSGSGTSYSLTVSSMEAEDAASYFCHQWSSYPFTFGSGTKLEIK
9.37

Given the binder 29A8H8C7 (antibody, V domains shown, Mouse mAb from hybridoma culture; also called mouse 29A8H8C7) VH: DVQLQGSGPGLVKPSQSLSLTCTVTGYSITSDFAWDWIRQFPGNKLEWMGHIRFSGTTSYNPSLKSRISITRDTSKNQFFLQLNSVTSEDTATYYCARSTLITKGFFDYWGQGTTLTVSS VL: DIVMTQSHKFMSTSVGGRVSITCKASQDVSPAVAWYQQKPGQSPKLLIYWASTRHTGVPDRFTGSGSGTDFTLTISSVQTEDLALYYCQQHYSTPWTFGGGTKLEIK , what is its reported EC50?
3.06

EC50 lookup needed for 42G2D7C3 (antibody, V domains shown, Mouse mAb from hybridoma culture) VH: DVQLLESGPGLVKPSQSLSLTCSVTGYSITSGYYWNWIRQFPGNNLEWMGSINYDGSNDYNPSLQDRISITRDTSKNQFFLKLNSVTTEDTATYYCARRLDYWGQGTTLIVSS VL: QIVLTQSPAIMSASPGEKVTISCSASSFINYMYWYQQKPGSSPKPWILRTSTLASGVPARFSGSGSGTSYSLTISSMEAEDAATYYCQQYHSYPLTFGAGTKLELK , thanks.
3.29

Which EC50 is listed for 30A7B5D9 (antibody, V domains shown, Mouse mAb from hybridoma culture) VH: KVQLQQSGAELVKPGTSVKLSCKASGYTFTEYIIYWIKQRSGQGLEWIGWFYPGTGSIKYNEKFKDKATLTADKSSSTVFMELSRLTSEDSAVYFCARHEEGNLWFAYWGQGTLVTVSA VL: QIVLTQSPALMSASPGERVTMTCSASSDVSYMYWYQQKPRSSPKPWIYLTSNLASGVPARFSGSGSGTSYSLTISSMEAEDAATYYCQQWTGNPLTFGAGTKLELK ?
6.12

I have this binder here, 1H1G4D9 (antibody, V domains shown, Mouse mAb from hybridoma culture) VH: EGQLQQSGAELVKPGASVILSCTASGFNIKDTYIHWLNQRPEQGLEWIGRIEPANGNTKYDPTFQGKATITADTSSNTAYLQLTSLTSEDTAVYYCSRGGIYYYGSHWYFDVWGAGTLVTVSS VL: DVLMTQTPLSLPVSLGDQASISCRSSQNIVYSDGDTYLEWYLQKPGQSPKLLIFKVSNRFSGVPDRFSGSGSGTDFTLKISRVEAEDLGVYYCFQGSHVPFTFGSGTKLEIK , and I need its recorded EC50.
12.3

Further cases:
Which measured EC50 value corresponds to 25B6E5D8 (antibody, V domains shown, Mouse mAb from hybridoma culture) VH: QFQLQQSGAELVRPGSSVKISCKASGYEFSSNWMNWVKQRPGQSLEWIGQIWPGDGDTNYNGKFRGKATLTSDKSSSTAYMQLNSLTSEDSAVYFCARGRASFYFDYWGQGTALTVSS VL: DIVLTQSPASLAVSLGQRATISCRASESVDDYGNSFMHWYQQKPGQPPKLLIYRASNLESGIPVRFSGSGSRTDFTLTINPVEADDVATYYCQQSNEDPHTFGGGTKLEIK ?
4.5

For the binder 27D3D3G2 (antibody, V domains shown, Mouse mAb from hybridoma culture) VH: QVLLQQSGPELVKPGASVRISCKASGYTFTSYYMHWVKQRPGQGLEWIGWIYPGNVNTKYNEKFKGKATLTADKSSSTAYMQLSSLTSEDSAVYFCASYGNYGGWYFDVWGAGTTVTVSS VL: DIQMTQTTSSLSASLGDRVTISCRASQDIGNYLNWYQQKPDGTVKLLIYYTSRLHSGVPSRFSGSGSGTDYSLTISNLEQEDIATYFCQQGDTFPWTFGGGTKLEIK , what EC50 is on record?
4.19

May I ask what EC50 has been recorded for 30A6B2D9 (antibody, V domains shown, Mouse mAb from hybridoma culture) VH: EGQLQQSGAGLVKPGASVNLSCTASGFNIKDTYIHWMKQRPEQGLEWIGRIAPTNGNTKYDPTFQGKATITADSSSNTAYLQVSSLTSEDTAVYYCSRGGIYYYGSHWYFDVWGAGTTVTVSS VL: SVLMTQTPLSLPVSLGDQASISCRSSQNIVYSDGDTYLEWYLQKPGQSPKLLIFKVSNRFFGVPDRFSGSGSGTDFTLKINRVEAEDLGVYYCFQGSHVPFTFGSGTKLEIK ?
11.1

Returns the measured EC50 for the input binder. Input: 51F3D2G4 (antibody, V domains shown, Mouse mAb from hybridoma culture) VH: QVQLQQSGAELARPGASVRLSCKASGYIFTGYGISWVKQRTGQGLEWIGEIFPRTANTYFNEKFKGKATLTADKSSSTAYMELRSLTSEDSAVYFCARDYDPYYALDYWGQGTSVTVSS VL: DIVMTQSHKFMSTSVGDRVTITCKASQDVSTAVDWYQQKPGQSPKLLIYSASYRYTGVPDRFTGSGSGTAFTFTISSEQAEDLAVYYCQQHYSVPFTFGGGTKLEIK
2.13

Any idea what its EC50 is? The binder is 18B7F4G8 (antibody, V domains shown, Mouse mAb from hybridoma culture) VH: DVQLQESGPDLVKPSQSLSLTCTVTGYSITSGYTWHWIRQFPGNKLEWMGYIHYSGSTKYNPSLKSRFSITRDTSKNQFFLQLNSMTAEDTATYYCARNSLFASWGHGTLVTVSA VL: DIVLTQSPASLAVSLGQRATISCRASESVDTYGDSFMHWFQQKPGQPPKLLIYRASNLESGIPARFSGSGSRTDFTLTINPVEADDVATYYCQQSNEAPYTFGGGTKLEIK
0.62
